# Tested on: Saos-2 human osteosarcoma cells
# Experimental Details: MTT assay, in vitro inhibitory activity on cells
# Type: cell-based
# Protocol Conditions: typically 48 hours
Measurement Type: IC50 (µM)
Form entry: value (µM) — number only.

See these solved cases before continuing.
{"columns": ["Compound", "Measurement Type", "Unit Symbol", "Assay Result"],
 "data": [
  ["Cc1ccc(C(=O)Nc2ccc(CN3CCN(C)CC3)c(C(F)(F)F)c2)cc1C#Cc1cnc2cccnn12 [AP24534, reference compound]", "IC50", "µM", 0.38],
  ["CNc1ncc2c(F)cc(C#Cc3cc(C(=O)Nc4ccc(CN5CCN(C)CC5)c(C(F)(F)F)c4)ccc3C)cc2n1 [Example 7]", "IC50", "µM", 4.7],
  ["CNc1ncc2ccc(C#Cc3cc(C(=O)Nc4ccc(CN5CCN(C)CC5)c(C(F)(F)F)c4)ccc3C)cc2n1 [Example 6]", "IC50", "µM", 2.1],
  ["Cc1ccc(C(=O)Nc2ccc(CN3CCN(C)CC3)c(C(F)(F)F)c2)cc1C#Cc1ccc2cnc(N)nc2c1 [Example 11]", "IC50", "µM", 1.79],
  ["Cc1ccc(NC(=O)Nc2ccc(CN3CCN(C)CC3)c(C(F)(F)F)c2)cc1C#Cc1cccc2[nH]nc(N)c12 [Example 32]", "IC50", "µM", 2.13]
]}

Task: Any idea what its IC50 is? The compound is Cc1ccc(C(=O)Nc2ccc(CN3CCN(C)CC3)c(C(F)(F)F)c2)cc1C#Cc1ccc2cncnc2c1 [Example 3]
Result: 1.07

Task: Can you share its IC50? I mean this compound: Cc1ccc(C(=O)Nc2ccc(CN3CCN(C)CC3)c(C(F)(F)F)c2)cc1C#Cc1cc(F)c2cnc(N)nc2c1 [Example 5]
Result: 0.31

Task: Sample Cc1ccc(C(=O)Nc2ccc(CN3CCN(C)CC3)c(C(F)(F)F)c2)cc1C#Cc1cccc2ncncc12 [Example 4] — what was its IC50?
Result: 1.59

----------
# System Name: Human ABL1 (T315I) (Homo sapiens, UniProt P00519, T315I)
# Experimental Details: ABL1 (T315I) kinase activity, [γ-33P] ATP / Abltide radiometric assay
# Protocol Conditions: ATP 1.0 μM, 120 minutes, room temperature
Quick reference: pIC50 of the listed items.
Lab note — pIC50 values are minus log10 of concentrations in M.

{"columns": ["Line Notation", "System Name", "Measurement Type", "Assay Result"],
 "data": [
  ["Cc1ccc(C(=O)Nc2ccc(CN3CCN(C)CC3)c(C(F)(F)F)c2)cc1C#Cc1cccc2[nH]nc(N)c12", "Human ABL1 (T315I) (Homo sapiens, UniProt P00519, T315I)", "pIC50", 8.19],
  ["Cc1ccc(C(=O)Nc2ccc(CN3CCN(C)CC3)c(C(F)(F)F)c2)cc1C#Cc1cccc2ncncc12", "Human ABL1 (T315I) (Homo sapiens, UniProt P00519, T315I)", "pIC50", 8.64],
  ["Cc1ccc(C(=O)Nc2ccc(CN3CCC(N(C)C)CC3)c(C(F)(F)F)c2)cc1C#Cc1ccc2nccnc2c1", "Human ABL1 (T315I) (Homo sapiens, UniProt P00519, T315I)", "pIC50", 7.61],
  ["Cc1ccc(C(=O)Nc2ccc(CN3CC[C@@H](N(C)C)C3)c(C(F)(F)F)c2)cc1C#Cc1cccc2ncncc12", "Human ABL1 (T315I) (Homo sapiens, UniProt P00519, T315I)", "pIC50", 7.66],
  ["Cc1ccc(C(=O)Nc2ccc(CN3CCN(C)CC3)c(C(F)(F)F)c2)cc1C#Cc1ccc2c(N)ncnc2c1", "Human ABL1 (T315I) (Homo sapiens, UniProt P00519, T315I)", "pIC50", 8.02]
]}

Task: Find the recorded pIC50 belonging to Cc1ccc(C(=O)Nc2ccc(CN3CCN(C)CC3)c(C(F)(F)F)c2)cc1C#Cc1ccc2cncnc2c1 and report it.
Result: 8.35

Task: Look up pIC50: Cc1ccc(C(=O)Nc2ccc(CN3CCN(CCO)CC3)c(C(F)(F)F)c2)cc1C#Cc1cccc2ncncc12
Result: 7.91

----------
# System: KU812 human peripheral blood basophilic leukocytes
# Experimental Details: CellTiter-Glo cell viability assay on Bcr-Abl-positive cells
# Protocol Conditions: KU812, 72 h, read-out: IC50 KU812
Listing of entries alongside the reported pIC50.
// pIC50 is dimensionless: -log10 of concentration (M)

Task: Look up pIC50: Cc1ccc(C(=O)Nc2ccc(CN3CCN(C)CC3)c(C(F)(F)F)c2)cc1C#Cc1ccc2c(N)ncnc2c1
Result: 8.93

Task: Name the recorded pIC50 for Cc1ccc(C(=O)Nc2ccc(CN3CCN(C)CC3)c(C(F)(F)F)c2)cc1C#Cc1ccc2c(=O)[nH]cnc2c1 .
Result: 9.29

----------
# Tested on: MEG-01 human megakaryocyte leukemia cells
# Experimental Details: CellTiter-Glo cell viability assay on Bcr-Abl-positive cells
# Type: cell-based
# Protocol Conditions: 72 hours
# Experimental: Each compound was dissolved in DMSO to 10 mM, diluted to 50 μM with complete medium, and then diluted to 10 μM with 0.1% DMSO in complete medium. The resulting solution was 10-fold serially diluted and formulated into 10 concentrations. MEG-01 human megakaryocyte leukemia cells and KU812 human peripheral blood basophilic leukocytes, purchased from ATCC Company, USA. […]
Measurement Type: pIC50
// pIC50 here means minus log10 of the molar concentration (mol/L)

{"columns": ["Line Notation", "pIC50"],
 "data": [
  ["Cc1ccc(C(=O)Nc2ccc(CN3CCN(C)CC3)c(C(F)(F)F)c2)cc1C#Cc1ccc2c(N)ncnc2c1", 8.45]
]}

Moving on to the next molecule.
Task: Name the recorded pIC50 for Cc1ccc(C(=O)Nc2ccc(CN3CCN(C)CC3)c(C(F)(F)F)c2)cc1C#Cc1ccc2c(=O)[nH]cnc2c1 .
Result: 8.83

----------
Measured IC50, listed per entry for reference.
# System Name: Human ABL1 (T315I) (Homo sapiens, UniProt P00519, T315I)
# Experimental Details: ABL1 (T315I) kinase activity, [γ-33P] ATP / Abltide radiometric assay
# Protocol Conditions: ATP 1.0 μM, 120 minutes, room temperature
Report the figure in nM without appending any unit label.

{"columns": ["Line Notation", "System Name", "IC50 [nM]"],
 "data": [
  ["CNc1ncnc2cc(C#Cc3cc(C(=O)Nc4ccc(CN5CCN(C)CC5)c(C(F)(F)F)c4)ccc3C)ccc12", "Human ABL1 (T315I) (Homo sapiens, UniProt P00519, T315I)", 31.7],
  ["Cc1ccc(C(=O)Nc2ccc(CN3CCN(C)CC3)c(C(F)(F)F)c2)cc1C#Cc1ccc2c(=O)[nH]cnc2c1", "Human ABL1 (T315I) (Homo sapiens, UniProt P00519, T315I)", 5.8],
  ["Cc1ccc(C(=O)Nc2ccc(CN3CCN(C)CC3)c(C(F)(F)F)c2)cc1C#Cc1ccc2nccnc2c1", "Human ABL1 (T315I) (Homo sapiens, UniProt P00519, T315I)", 6]
]}

Now examine the next entry.
Task: Given the compound Cc1cn(-c2cc(NC(=O)c3ccc(C)c(C#Cc4cccc5ncncc45)c3)cc(C(F)(F)F)c2)cn1 , what is its reported IC50?
Result: 43.5
